Condition Label: in ethanol, 303.15 K
Measurement Type: solubility (mole fraction)
Give bare numbers.

Look up solubility (mole fraction) for this molecule: O=C(O)c1ccc[nH]c1=O 0.00134

---

Condition Label: in n-butyl acetate, 313.15 K
Measurement Type: solubility (mole fraction)
Numbers only.

Look up solubility (mole fraction) for this compound: O=C(O)c1ccc[nH]c1=O 0.000105

---

Condition Label: in sec-butanol, 303.15 K
Measurement Type: solubility (mole fraction)
Answers are plain numbers.

Look up solubility (mole fraction) for this compound: O=C(O)c1ccc[nH]c1=O 0.000199

---

Condition Label: in acetone, 313.15 K
Measurement Type: solubility (mole fraction)
Give bare numbers.

Look up solubility (mole fraction) for this compound: O=C(O)c1ccc[nH]c1=O 0.00277

---

Condition Label: in ethanol, 313.15 K
Measurement Type: solubility (mole fraction)
Answers are plain numbers.

Look up solubility (mole fraction) for this compound: O=C(O)c1ccc[nH]c1=O 0.00177

---

Condition Label: in water, 303.15 K
Measurement Type: solubility (mole fraction)
One number for each entry.

Look up solubility (mole fraction) for this molecule: O=C(O)c1ccc[nH]c1=O 0.00111

---

Condition Label: in acetonitrile, 293.15 K
Measurement Type: solubility (mole fraction)
Give bare numbers.

Look up solubility (mole fraction) for this molecule: O=C(O)c1ccc[nH]c1=O 0.000837

---

Condition Label: in acetone, 318.15 K
Measurement Type: solubility (mole fraction)
Answers are plain numbers.

Look up solubility (mole fraction) for this molecule: O=C(O)c1ccc[nH]c1=O 0.0033

---

Condition Label: in methanol, 293.15 K
Measurement Type: solubility (mole fraction)
Give bare numbers.

Look up solubility (mole fraction) for this compound: O=C(O)c1ccc[nH]c1=O 0.00097

---

Condition Label: in n-butanol, 323.15 K
Measurement Type: solubility (mole fraction)
Give bare numbers.

Look up solubility (mole fraction) for this molecule: O=C(O)c1ccc[nH]c1=O 0.000603

---

Condition Label: in n-butyl acetate, 318.15 K
Measurement Type: solubility (mole fraction)

Look up solubility (mole fraction) for this molecule: O=C(O)c1ccc[nH]c1=O 0.000124

---

Condition Label: in n-butanol, 318.15 K
Measurement Type: solubility (mole fraction)
Numbers only.

Look up solubility (mole fraction) for this compound: O=C(O)c1ccc[nH]c1=O 0.000515

---

Condition Label: in ethyl acetate, 318.15 K
Measurement Type: solubility (mole fraction)
Numbers only.

Look up solubility (mole fraction) for this compound: O=C(O)c1ccc[nH]c1=O 0.000661

---

Condition Label: in acetonitrile, 318.15 K
Measurement Type: solubility (mole fraction)

Look up solubility (mole fraction) for this compound: O=C(O)c1ccc[nH]c1=O 0.0019

---

Condition Label: in sec-butanol, 323.15 K
Measurement Type: solubility (mole fraction)
One number for each entry.

Look up solubility (mole fraction) for this compound: O=C(O)c1ccc[nH]c1=O 0.000384

---

Condition Label: in n-butyl acetate, 303.15 K
Measurement Type: solubility (mole fraction)

Look up solubility (mole fraction) for this compound: O=C(O)c1ccc[nH]c1=O 7.5e-05

---

Condition Label: in water, 293.15 K
Measurement Type: solubility (mole fraction)
Answers are plain numbers.

Look up solubility (mole fraction) for this compound: O=C(O)c1ccc[nH]c1=O 0.000796

---

Condition Label: in methanol, 333.15 K
Measurement Type: solubility (mole fraction)
Answers are plain numbers.

Look up solubility (mole fraction) for this compound: O=C(O)c1ccc[nH]c1=O 0.00378

---

Condition Label: in acetone, 303.15 K
Measurement Type: solubility (mole fraction)

Look up solubility (mole fraction) for this molecule: O=C(O)c1ccc[nH]c1=O 0.00199

---

Condition Label: in n-butyl acetate, 333.15 K
Measurement Type: solubility (mole fraction)

Look up solubility (mole fraction) for this compound: O=C(O)c1ccc[nH]c1=O 0.000197

---

Condition Label: in n-butyl acetate, 323.15 K
Measurement Type: solubility (mole fraction)

Look up solubility (mole fraction) for this molecule: O=C(O)c1ccc[nH]c1=O 0.000146

---

Condition Label: in water, 313.15 K
Measurement Type: solubility (mole fraction)
One number for each entry.

Look up solubility (mole fraction) for this compound: O=C(O)c1ccc[nH]c1=O 0.00159

---

Condition Label: in n-butanol, 313.15 K
Measurement Type: solubility (mole fraction)
One number for each entry.

Look up solubility (mole fraction) for this compound: O=C(O)c1ccc[nH]c1=O 0.000437

---

Condition Label: in ethanol, 293.15 K
Measurement Type: solubility (mole fraction)
Answers are plain numbers.

Look up solubility (mole fraction) for this compound: O=C(O)c1ccc[nH]c1=O 0.000992

---

Condition Label: in isopropanol, 318.15 K
Measurement Type: solubility (mole fraction)
Answers are plain numbers.

Look up solubility (mole fraction) for this compound: O=C(O)c1ccc[nH]c1=O 0.000595

---

Condition Label: in n-butanol, 293.15 K
Measurement Type: solubility (mole fraction)

Look up solubility (mole fraction) for this compound: O=C(O)c1ccc[nH]c1=O 0.000215

---

Condition Label: in acetonitrile, 313.15 K
Measurement Type: solubility (mole fraction)

Look up solubility (mole fraction) for this molecule: O=C(O)c1ccc[nH]c1=O 0.00169

---

Condition Label: in water, 323.15 K
Measurement Type: solubility (mole fraction)
Give bare numbers.

Look up solubility (mole fraction) for this compound: O=C(O)c1ccc[nH]c1=O 0.00237

---

Condition Label: in sec-butanol, 313.15 K
Measurement Type: solubility (mole fraction)

Look up solubility (mole fraction) for this compound: O=C(O)c1ccc[nH]c1=O 0.000283

---

Condition Label: in water, 318.15 K
Measurement Type: solubility (mole fraction)
Give bare numbers.

Look up solubility (mole fraction) for this compound: O=C(O)c1ccc[nH]c1=O 0.00195

---

Condition Label: in acetone, 293.15 K
Measurement Type: solubility (mole fraction)
Give bare numbers.

Look up solubility (mole fraction) for this compound: O=C(O)c1ccc[nH]c1=O 0.00135

---

Condition Label: in acetonitrile, 303.15 K
Measurement Type: solubility (mole fraction)
Numbers only.

Look up solubility (mole fraction) for this compound: O=C(O)c1ccc[nH]c1=O 0.00116

---

Condition Label: in methanol, 318.15 K
Measurement Type: solubility (mole fraction)
Answers are plain numbers.

Look up solubility (mole fraction) for this compound: O=C(O)c1ccc[nH]c1=O 0.00253

---

Condition Label: in water, 333.15 K
Measurement Type: solubility (mole fraction)
Answers are plain numbers.

Look up solubility (mole fraction) for this molecule: O=C(O)c1ccc[nH]c1=O 0.00326

---

Condition Label: in ethanol, 323.15 K
Measurement Type: solubility (mole fraction)
Give bare numbers.

Look up solubility (mole fraction) for this compound: O=C(O)c1ccc[nH]c1=O 0.0025

---

Condition Label: in methanol, 313.15 K
Measurement Type: solubility (mole fraction)
Give bare numbers.

Look up solubility (mole fraction) for this compound: O=C(O)c1ccc[nH]c1=O 0.0021

---

Condition Label: in acetone, 308.15 K
Measurement Type: solubility (mole fraction)
One number for each entry.

Look up solubility (mole fraction) for this molecule: O=C(O)c1ccc[nH]c1=O 0.00233

---

Condition Label: in isopropanol, 323.15 K
Measurement Type: solubility (mole fraction)
Answers are plain numbers.

Look up solubility (mole fraction) for this molecule: O=C(O)c1ccc[nH]c1=O 0.000772
